tested on: SN12C renal; test: NCI-60 one-dose screen, 48 h (100 = growth as untreated, 0 = no growth, -100 = all killed); details: 10 µM unless noted
Compounds without any hit were thinned out: in the full panel of roughly 83,000, 20% have a hit.
reported endpoint: growth (%)
Numbers only; they are read as %.

The reported SN12C renal growth of O=C(CC1(O)C(=O)N(Cc2ccccc2)c2ccccc21)c1ccc(C(=O)NCC2CCC3(CC2)OOC2(CCCCC2)OO3)cc1 (stereo not given) is -60.9

The reported SN12C renal growth of CCC(CC)CC1(C)CC2(C)CCOC2OO1 (stereo not given) is 102

The reported SN12C renal growth of `COc1ccc(NC([Se])=NC23CC4CC(CC(C4)C2)C3)cc1` is 4.39

Others:
The reported SN12C renal growth of `CC(C)(NC(=O)O[C@@H]1CN2CCC1CC2)c1csc(-c2ccc(F)cc2)n1` is 95.4

The reported SN12C renal growth of `COc1cc2c(cc1OCCCn1c(-c3ccccn3)nc3ccccc31)N=C[C@@H]1CCCN1C2=O` is 26
